assay-text: NCI Yeast Anticancer Drug Screen. Data for the rad50 strain (AID 155)
condition-details: S. cerevisiae rad50 strain growth inhibition; at 50.0 µM (retest, dose inferred, filed as 5.0); hits give high values
About 79,000 compounds went through this panel and 15% of them were active in at least one assay; those are over-represented in the sample as a whole.
Label YES when growth inhibition is at or above 60%; otherwise label NO.

API: above_or_equal(metric=growth inhibition, cutoff=60%) for item `CCOC(=O)Sc1nc2ccccc2[nH]1`
NO

API: above_or_equal(metric=growth inhibition, cutoff=60%) for item CCCCN(Cc1ccccc1)CC(O)c1cc2c(c3ccccc13)CCCC2 (centres undefined)
YES

API: above_or_equal(metric=growth inhibition, cutoff=60%) for item `Cn1ncc2c(Nc3cccc(Cl)c3)nc(Nc3cccc(Cl)c3)nc21`
YES

API: above_or_equal(metric=growth inhibition, cutoff=60%) for item CCOC(=O)/C=C1/C(=O)OC2C1OC1OC(C)(C)OC12 (centres undefined)
YES

API: above_or_equal(metric=growth inhibition, cutoff=60%) for item CC(Cc1ccccc1)NN1CCOC(c2ccccc2)C1C (centres undefined)
YES

API: above_or_equal(metric=growth inhibition, cutoff=60%) for item `O=c1[nH]cnc2c1ncn2CCc1ccccc1`
NO

API: above_or_equal(metric=growth inhibition, cutoff=60%) for item CC(C)CCCC(O)CNCc1ccccc1 (centres undefined)
NO

API: above_or_equal(metric=growth inhibition, cutoff=60%) for item COc1ccc(N2C(=O)C(=O)C(C(C)=O)C2=O)cc1 (centres undefined)
NO

API: above_or_equal(metric=growth inhibition, cutoff=60%) for item `O=C1c2scc(-c3ccccc3)c2-n2cccc21`
YES

API: above_or_equal(metric=growth inhibition, cutoff=60%) for item `C[C@]12CC[C@H]3[C@@H](CCC4=CC(=O)CC[C@@]43C)[C@@H]1CC[C@@H]2C(=O)C=O`
NO

API: above_or_equal(metric=growth inhibition, cutoff=60%) for item `O=C(CCN1CCOCC1)c1ccc(Oc2ccc(F)cc2)cc1`
YES

API: above_or_equal(metric=growth inhibition, cutoff=60%) for item `NC(=S)N/N=C1\NC(=O)/C(=C/c2ccc3c(c2)OCO3)S1`
NO

API: above_or_equal(metric=growth inhibition, cutoff=60%) for item `O=[N+]([O-])C(=C(Nc1ccccc1)Nc1ccccc1)/C(Cl)=C(\Cl)Br`
YES

API: above_or_equal(metric=growth inhibition, cutoff=60%) for item `O=Nc1c2n[nH]c1CCCCCCCCC2`
YES

API: above_or_equal(metric=growth inhibition, cutoff=60%) for item `C/C(=N/NC(=O)Nc1ccc(N=Nc2ccccc2)cc1)c1cccnc1`
NO

API: above_or_equal(metric=growth inhibition, cutoff=60%) for item `CN(c1ccc(Cl)cc1)S(=O)(=O)c1cccc([N+](=O)[O-])c1`
NO

API: above_or_equal(metric=growth inhibition, cutoff=60%) for item `Cc1ccc(S(=O)(=O)S/C(=N\c2ccccn2)Nc2ccccn2)cc1`
NO

API: above_or_equal(metric=growth inhibition, cutoff=60%) for item `CCCCCCOC(=O)Nc1ccc(S(=O)(=O)N2CCCCC2)cc1`
NO

API: above_or_equal(metric=growth inhibition, cutoff=60%) for item C/C(=N\NC(=S)N1CC(C)OC(C)C1)c1ncccn1 (centres undefined)
YES

API: above_or_equal(metric=growth inhibition, cutoff=60%) for item `COc1ccc(/C=N/NC(=O)c2ccco2)cc1OC`
NO

API: above_or_equal(metric=growth inhibition, cutoff=60%) for item `CN(C)CCCNc1ccc(O)c2c1C(=O)c1ccccc1C2=O`
YES

API: above_or_equal(metric=growth inhibition, cutoff=60%) for item `c1ccc(-c2c3ccccc3cc3ccc4ccccc4c23)nc1`
NO

API: above_or_equal(metric=growth inhibition, cutoff=60%) for item `CN1C(Cl)=NS(=O)(=O)c2ccccc21`
NO

API: above_or_equal(metric=growth inhibition, cutoff=60%) for item `COc1ccc(-c2c(C(=O)O)[nH]c3ccccc23)cc1`
YES

API: above_or_equal(metric=growth inhibition, cutoff=60%) for item CC1(C)CCC2(C(=O)O)CCC3(C)C(=CCC4C5(C)CC(O)C(O)C(C)(C(=O)O)C5CCC43C)C2C1 (centres undefined)
YES

API: above_or_equal(metric=growth inhibition, cutoff=60%) for item `CCNc1ccccc1C`
YES

API: above_or_equal(metric=growth inhibition, cutoff=60%) for item COC1(OC)C2(Cl)C(Cl)=C(Cl)C1(Cl)C1C2C2CC1(C(=O)O)c1ccccc12 (centres undefined)
NO

API: above_or_equal(metric=growth inhibition, cutoff=60%) for item `Nc1c(Cl)nc(C(F)(F)F)nc1NCc1ccccc1`
YES

API: above_or_equal(metric=growth inhibition, cutoff=60%) for item `Cc1c[nH]c2nc(C)n(-c3ccccc3)c(=N)c12`
NO

API: above_or_equal(metric=growth inhibition, cutoff=60%) for item `CCCN(CCC)C(=O)C(C)C`
NO

API: above_or_equal(metric=growth inhibition, cutoff=60%) for item `CCOc1cc2c(cc1O)CC[C@@H]1[C@@H]2CC[C@]2(C)[C@@H](O)CC[C@@H]12`
NO

API: above_or_equal(metric=growth inhibition, cutoff=60%) for item Fc1ccc(C2SCc3nc4ccccc4n32)cc1Cl (centres undefined)
YES

API: above_or_equal(metric=growth inhibition, cutoff=60%) for item `O=S1(=O)C(Br)=Cc2ccccc21`
YES

API: above_or_equal(metric=growth inhibition, cutoff=60%) for item `Cc1ccccc1N=Nc1sc(N)nc1-c1ccccc1`
YES

API: above_or_equal(metric=growth inhibition, cutoff=60%) for item `COc1ccc(OC)c2c1C=CC(Br)=CC2`
NO

API: above_or_equal(metric=growth inhibition, cutoff=60%) for item CC(=O)NC(CCC(=O)O)C(=O)O.[NH-]C1CCCCC1[NH-].[Pt+2] (centres undefined)
YES

API: above_or_equal(metric=growth inhibition, cutoff=60%) for item `Clc1ccccc1N1CCN(c2c3c(nc4ccccc24)CCCCC3)CC1`
YES

API: above_or_equal(metric=growth inhibition, cutoff=60%) for item `O=c1[nH]c2c([N+](=O)[O-])cc(Cl)cc2nc1/C=C(\O)c1ccc(F)cc1`
YES

API: above_or_equal(metric=growth inhibition, cutoff=60%) for item `[O-][n+]1onc2ncccc21`
YES

API: above_or_equal(metric=growth inhibition, cutoff=60%) for item `CN(C)c1ccc2c(NCCCCCCNc3ccnc4cc(N(C)C)ccc34)ccnc2c1`
YES

API: above_or_equal(metric=growth inhibition, cutoff=60%) for item `CN(/N=C\c1ccc2ccccc2c1)C1=NCCCN1`
YES

API: above_or_equal(metric=growth inhibition, cutoff=60%) for item CC(C=O)Cc1ccccc1 (centres undefined)
NO

API: above_or_equal(metric=growth inhibition, cutoff=60%) for item `CCN(CC)C(=O)CCCC1CCCCC1`
NO

API: above_or_equal(metric=growth inhibition, cutoff=60%) for item CCOC(CC)C(O)(c1ccc(N(C)C)cc1)c1ccc(N(C)C)cc1 (centres undefined)
YES

API: above_or_equal(metric=growth inhibition, cutoff=60%) for item `O=C1c2ccccc2C(=O)c2sc(Nc3cc(Cl)ccc3Cl)nc21`
YES

API: above_or_equal(metric=growth inhibition, cutoff=60%) for item `Cc1nn(C)c2ccc3ccccc3c(=O)c12`
YES

API: above_or_equal(metric=growth inhibition, cutoff=60%) for item CCCCCC(O)C(C)CO (centres undefined)
NO

API: above_or_equal(metric=growth inhibition, cutoff=60%) for item `c1ccc2c(c1)Sc1nccc3ccnc-2c13`
YES
